- System: U2OS
- Test name: Multiplex assay against U2OS
- Type: toxicity, cell-based
- Stated conditions: human, 48 h, 1 µM, compound concentration 1 uM, replicate 1
Property name: Population Membrane Permeable-Phenotype (%)
A number alone suffices; assume %.

Example cases with answers are listed next.
Cl.Clc1ccc2nsnc2c1NC1=NCCN1 [TIZANIDINE HYDROCHLORIDE] :: 2
CC(=O)NCCc1c(Cc2ccccc2)[nH]c2ccccc12 [LUZINDOLE] :: 3
Oc1c(CN2CCN(c3ccccn3)CC2)cc(Cl)c2cccnc12 :: 6

The reported Population Membrane Permeable-Phenotype (%) of the molecule C[C@H]1[C@H]2CC[C@H]3[C@@H]4CC=C5C[C@@H](N(C)C)CC[C@]5(C)[C@H]4CC[C@]23CN1C [CONESSINE] was 4

The reported Population Membrane Permeable-Phenotype (%) of the molecule Cc1ccccc1C(=O)Nc1ccc(C(=O)N2CCCC(N(C)C)c3ccccc32)cc1.Cl (stereo not given) was 5

The reported Population Membrane Permeable-Phenotype (%) of the molecule `CN(C)c1ccnc2sc3c(=O)n(N4CCCCCC4)cnc3c12` was 4

The reported Population Membrane Permeable-Phenotype (%) of the molecule O=C(NCC(=O)N1CC[C@H](N[C@H]2CC[C@@](O)(c3ccc(-c4ncccn4)cn3)CC2)C1)c1cccc(C(F)(F)F)c1 [PF-4136309] was 4

The reported Population Membrane Permeable-Phenotype (%) of the molecule CN1CCN2c3ncccc3Cc3ccccc3C2C1 (stereo not given) [MIRTAZAPINE] was 4
